Molecular target: LPL (lipoprotein lipase) (Mus musculus)
Construct: endogenous in cells; host or cells: C2C12 cells, differentiated
Sequence (P11152 28-474): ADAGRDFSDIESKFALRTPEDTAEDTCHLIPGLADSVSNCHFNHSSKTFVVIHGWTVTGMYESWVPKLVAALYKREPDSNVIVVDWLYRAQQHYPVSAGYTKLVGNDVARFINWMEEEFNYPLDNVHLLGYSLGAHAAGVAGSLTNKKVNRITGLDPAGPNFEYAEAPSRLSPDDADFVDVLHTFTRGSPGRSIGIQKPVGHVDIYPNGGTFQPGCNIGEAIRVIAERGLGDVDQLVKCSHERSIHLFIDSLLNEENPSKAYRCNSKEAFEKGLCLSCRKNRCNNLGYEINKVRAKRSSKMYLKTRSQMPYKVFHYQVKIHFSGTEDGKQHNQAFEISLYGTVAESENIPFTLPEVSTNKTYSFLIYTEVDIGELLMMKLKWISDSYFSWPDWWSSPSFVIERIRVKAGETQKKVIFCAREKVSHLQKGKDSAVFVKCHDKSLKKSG
Test: Confirmation test of LPL activation effect in mouse skeletal muscle cells (C2C12 cells)
Type: cell-based
Details: amount of addition 30 μM, 8 hours exposure, vs control group
Outcome: criterion met for Rate of increase in LPL activity of at least 90%; criterion not met for anything lower.

Incoming: Could you tell me if the measured Rate of increase in LPL activity of COc1cc(OCc2ccccc2)ccc1-c1c[nH]c(C(C)C)n1 reaches 90% or more?
Outgoing: criterion not met

Incoming: Could you tell me if the measured Rate of increase in LPL activity of COc1cc(OCc2ccc(C#N)cc2)ccc1-c1c[nH]c(-c2ccc(C)cc2)n1 reaches 90% or more?
Outgoing: criterion met

Incoming: Could you tell me if the measured Rate of increase in LPL activity of COc1cc(-c2c[nH]c(-c3ccccc3)n2)ccc1OCc1ccc(Br)cc1F.Cl reaches 90% or more?
Outgoing: criterion not met

Incoming: Could you tell me if the measured Rate of increase in LPL activity of COc1cc(OCc2ccc(Cl)cc2)ccc1-c1c[nH]c(-c2ccsc2)n1.Cl reaches 90% or more?
Outgoing: criterion not met

Incoming: Could you tell me if the measured Rate of increase in LPL activity of COc1cc(-c2c[nH]c(-c3ccccc3)n2)ccc1OCc1ccc(Cl)cc1 reaches 90% or more?
Outgoing: criterion not met

---

Target: LPL (lipoprotein lipase) (Mus musculus)
Construct: endogenous in cells; host or cells: C2C12 cells, differentiated
Experiment: Confirmation test of LPL activation effect in mouse skeletal muscle cells (C2C12 cells)
Assay type: cell-based
Conditions: amount of addition 10 μM, 8 hours exposure, vs control group
Protocol: Human skeletal muscle cells (human skeletal muscle myoblasts) or mouse skeletal muscle cells (C2C12 cells) that were seeded onto plates, cultured, and differentiated were exposed to a 0.3% dimethyl sulfoxide-containing culture medium in which the compound of the present invention was dissolved (concentration: 10 μM or 30 μM). […] LPL activity in the supernatant was measured using an LPL activity assay kit (made by Roar Biomedical Inc.). […]
measurement_label: Rate of increase in LPL activity (%)
Hi! Could you send only the number? It should be in %, unit omitted.

These solved cases illustrate the format of a correct answer.
| compound_string | Rate of increase in LPL activity / % |
| --- | --- |
| COc1cc(-c2c[nH]c(-c3ccc(F)cc3)n2)ccc1OCc1ccc(Cl)cc1.Cl | 18 |
| COc1cc(-c2nc(-c3ccc(F)cc3)[nH]c2C)ccc1OCc1ccccc1 | 47 |

Incoming: What measured Rate of increase in LPL activity goes with COc1cc(OCc2ccc(C#N)cc2)ccc1-c1c[nH]c(-c2cccc(C(F)(F)F)c2)n1.Cl ?
Outgoing: 10

Incoming: What measured Rate of increase in LPL activity goes with COc1cc(OCc2ccc(Br)cc2F)ccc1-c1c[nH]c(-c2ccsc2)n1.Cl ?
Outgoing: 10

Incoming: What measured Rate of increase in LPL activity goes with COc1cc(-c2c[nH]c(-c3ccsc3)n2)ccc1OCc1ccc(Br)cc1F.Cl ?
Outgoing: 52

Incoming: What measured Rate of increase in LPL activity goes with COc1cc(OCc2ccc(C(F)(F)F)cc2)ccc1-c1c[nH]c(-c2ccc(C(F)(F)F)cc2)n1 ?
Outgoing: 37

Incoming: What measured Rate of increase in LPL activity goes with COc1cc(OCc2ccc(Cl)cc2)ccc1-c1c[nH]c(-c2ccccc2C(F)(F)F)n1 ?
Outgoing: 29

Incoming: What measured Rate of increase in LPL activity goes with COc1cc(OCc2ccc(C#N)cc2)ccc1-c1c[nH]c(-c2ccc(Cl)cc2)n1 ?
Outgoing: 115

---

Target: LPL (lipoprotein lipase) (Mus musculus, UniProt P11152)
Construct: endogenous in cells; host or cells: C2C12 cells, differentiated
Assay: Confirmation test of LPL activation effect in mouse skeletal muscle cells (C2C12 cells)
Type: cell-based
Details: amount of addition 30 μM, 8 hours exposure, vs control group
measurement_label: Rate of increase in LPL activity
Express your answer as a number followed by its unit.

These solved cases illustrate the format of a correct answer.
| compound_string | result |
| --- | --- |
| COc1cc(OCc2ccc(Cl)cc2F)ccc1-c1c[nH]c(-c2ccc(F)cc2)n1.Cl | 236% |
| COc1cc(OCc2ccccc2)ccc1-c1c[nH]c(-c2ccc(F)cc2)n1.Cl | 131% |

Consider the record given below.
Incoming: What measured Rate of increase in LPL activity goes with COc1cc(OCc2ccc(C#N)cc2)ccc1-c1c[nH]c(-c2ccc(C(F)(F)F)cc2)n1 ?
Outgoing: 143%

---

Target: LPL (lipoprotein lipase) (Homo sapiens, UniProt P06858)
Construct: endogenous in cells; host or cells: human skeletal muscle myoblasts, differentiated
Sequence (P06858 28-475): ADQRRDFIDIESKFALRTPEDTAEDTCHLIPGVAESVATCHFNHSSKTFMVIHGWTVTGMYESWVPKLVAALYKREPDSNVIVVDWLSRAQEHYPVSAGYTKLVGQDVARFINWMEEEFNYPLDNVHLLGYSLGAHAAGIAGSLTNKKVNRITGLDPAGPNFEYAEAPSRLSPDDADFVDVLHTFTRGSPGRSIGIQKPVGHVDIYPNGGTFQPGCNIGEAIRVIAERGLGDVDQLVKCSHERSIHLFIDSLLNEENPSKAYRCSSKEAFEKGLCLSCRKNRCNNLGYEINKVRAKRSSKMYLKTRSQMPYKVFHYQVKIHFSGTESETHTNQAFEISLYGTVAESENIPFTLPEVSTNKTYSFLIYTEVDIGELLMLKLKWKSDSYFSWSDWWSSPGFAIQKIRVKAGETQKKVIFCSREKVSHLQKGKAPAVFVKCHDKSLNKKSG
Test: Confirmation test of LPL activation effect in human skeletal muscle cells
Type: cell-based
Details: amount of addition 10 μM, 8 hours exposure, vs control group
Experimental: Human skeletal muscle cells (human skeletal muscle myoblasts) or mouse skeletal muscle cells (C2C12 cells) that were seeded onto plates, cultured, and differentiated were exposed to a 0.3% dimethyl sulfoxide-containing culture medium in which the compound of the present invention was dissolved (concentration: 10 μM or 30 μM). […] LPL activity in the supernatant was measured using an LPL activity assay kit (made by Roar Biomedical Inc.). […]
measurement_label: Rate of increase in LPL activity
Express your answer as a number followed by its unit.

These solved cases illustrate the format of a correct answer.
| compound_string | Rate of increase in LPL activity |
| --- | --- |
| COc1cc(OCc2ccc(C#N)cc2)ccc1-c1c[nH]c(-c2ccc(F)cc2)n1.Cl | 23% |
| COc1cc(OCc2ccc(Br)cc2F)ccc1-c1c[nH]c(-c2ccc(F)cc2)n1.Cl | 19% |
| COc1cc(OCc2ccc(Br)cc2F)ccc1-c1c[nH]c(-c2ccc(C(F)(F)F)cc2)n1 | 23% |
| COc1cc(-c2c[nH]c(-c3ccc(C(F)(F)F)cc3)n2)ccc1OCc1ccc(Cl)cc1 | 22% |

Incoming: What measured Rate of increase in LPL activity goes with COc1cc(OCc2ccc(Cl)cc2)ccc1-c1c[nH]c(-c2ccc(C(F)(F)F)cc2)n1 ?
Outgoing: 24%

---

Target: LPL (lipoprotein lipase) (Mus musculus, UniProt P11152)
Construct: endogenous in cells; host or cells: C2C12 cells, differentiated
Assay: Confirmation test of LPL activation effect in mouse skeletal muscle cells (C2C12 cells)
Format: cell-based
Details: amount of addition 30 μM, 8 hours exposure, vs control group
measurement_label: Rate of increase in LPL activity (%)
Hi! Could you send only the number? It should be in %, unit omitted.

These solved cases illustrate the format of a correct answer.
| compound | subject_of_test | Rate of increase in LPL activity / % |
| --- | --- | --- |
| COc1cc(OCc2ccccc2)ccc1-c1c[nH]c(-c2ccsc2)n1 [Example 24] | LPL (lipoprotein lipase) (Mus musculus, UniProt P11152) | 77 |
| COc1ccc(-c2nc(-c3ccc(OCc4ccccc4)cc3OC)c[nH]2)cc1.Cl [Example 128] | LPL (lipoprotein lipase) (Mus musculus, UniProt P11152) | 208 |
| COc1cccc(-c2nc(-c3ccc(OCc4ccc(C#N)cc4)cc3OC)c[nH]2)c1 [Example 100] | LPL (lipoprotein lipase) (Mus musculus, UniProt P11152) | 43 |
| COc1cc(-c2c[nH]c(-c3ccc(F)c(F)c3)n2)ccc1OCc1ccccc1.Cl [Example 47] | LPL (lipoprotein lipase) (Mus musculus, UniProt P11152) | 120 |
| COc1cc(OCc2ccc(C(F)(F)F)cc2)ccc1-c1c[nH]c(-c2ccc(C(F)(F)F)cc2)n1 [Example 167] | LPL (lipoprotein lipase) (Mus musculus, UniProt P11152) | 104 |

Incoming: What measured Rate of increase in LPL activity goes with COc1ccc(-c2nc(-c3ccc(OCc4ccc(C#N)cc4)cc3OC)c[nH]2)cc1.Cl [Example 87] ?
Outgoing: 144

Incoming: What measured Rate of increase in LPL activity goes with COc1cc(OCc2ccc(Cl)cc2)ccc1-c1c[nH]c(-c2ccc(F)cc2)n1 [Example 43] ?
Outgoing: 157

Incoming: What measured Rate of increase in LPL activity goes with COc1cccc(-c2nc(-c3ccc(OCc4ccc(Br)cc4F)cc3OC)c[nH]2)c1.Cl [Example 99] ?
Outgoing: 90

Incoming: What measured Rate of increase in LPL activity goes with COc1cc(-c2c[nH]c(-c3ccc(F)cc3)n2)ccc1OCc1ccc(Cl)cc1.Cl [Example 48] ?
Outgoing: 96

Incoming: What measured Rate of increase in LPL activity goes with COc1cc(-c2c[nH]c(-c3ccc(F)cc3)n2)ccc1OCc1ccc(C#N)cc1 [Example 56] ?
Outgoing: 62

Incoming: What measured Rate of increase in LPL activity goes with COc1cc(-c2c[nH]c(-c3ccsc3)n2)ccc1OCc1ccccc1C#N.Cl [Example 73] ?
Outgoing: 108

Incoming: What measured Rate of increase in LPL activity goes with COc1cc(OCc2ccccc2)ccc1-c1c[nH]c(-c2ccc(C)cc2)n1 [Example 109] ?
Outgoing: 77

Incoming: What measured Rate of increase in LPL activity goes with COc1cc(-c2c[nH]c(-c3ccsc3)n2)ccc1OCc1ccc(Cl)cc1 [Example 71] ?
Outgoing: 114

Incoming: What measured Rate of increase in LPL activity goes with COc1cc(OCc2ccc(C#N)cc2)ccc1-c1c[nH]c(-c2ccc(Cl)c(Cl)c2)n1 [Example 111] ?
Outgoing: 81

Where do the numbers come from? From patent US8329739B2.
